The reported numbers originate from paper PMC4848594.

Target: RHDV RdRp (Rabbit hemorrhagic disease virus-V351)
Sequence (P27411 1252-1767): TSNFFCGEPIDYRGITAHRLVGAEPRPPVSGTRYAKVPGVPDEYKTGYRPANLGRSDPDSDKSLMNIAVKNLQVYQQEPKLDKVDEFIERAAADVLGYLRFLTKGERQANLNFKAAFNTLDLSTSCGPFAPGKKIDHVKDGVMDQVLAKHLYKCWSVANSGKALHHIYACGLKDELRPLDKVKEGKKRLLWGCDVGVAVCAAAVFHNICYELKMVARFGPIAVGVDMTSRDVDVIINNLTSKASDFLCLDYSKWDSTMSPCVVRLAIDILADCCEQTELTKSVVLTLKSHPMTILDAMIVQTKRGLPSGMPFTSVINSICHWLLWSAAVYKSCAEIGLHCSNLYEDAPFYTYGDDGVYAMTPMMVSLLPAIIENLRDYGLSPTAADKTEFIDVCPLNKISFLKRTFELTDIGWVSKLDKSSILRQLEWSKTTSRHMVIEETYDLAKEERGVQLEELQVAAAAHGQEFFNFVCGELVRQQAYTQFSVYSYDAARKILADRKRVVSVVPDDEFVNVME
reported.metric: IC50 (µM)
Numeric only. Scale: µM

Lab note: record IC50 of Cc1nc(-c2ccccc2)sc1C(=O)Nc1sc2c(c1C#N)CCC2 tested on RHDV RdRp (Rabbit hemorrhagic disease virus-V351).
19.9
